DC50 values for the molecules below.
Biological target: CDK1 (Homo sapiens, UniProt P06493)
Construct: endogenous in cells; host or cells: OVCAR-8
Sequence (P06493 whole entry): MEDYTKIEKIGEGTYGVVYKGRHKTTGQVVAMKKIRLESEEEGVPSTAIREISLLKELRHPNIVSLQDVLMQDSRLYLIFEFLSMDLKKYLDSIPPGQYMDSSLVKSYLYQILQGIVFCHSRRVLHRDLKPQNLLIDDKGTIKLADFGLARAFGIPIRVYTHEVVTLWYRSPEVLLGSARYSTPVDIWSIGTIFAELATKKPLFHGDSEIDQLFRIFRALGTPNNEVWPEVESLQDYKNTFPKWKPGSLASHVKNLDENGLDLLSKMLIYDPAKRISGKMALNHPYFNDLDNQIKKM
Assay: CDK1 degradation by immunoblotting in OVCAR-8 cells
Assay type: cell-based
Conditions: 24 h

Molecule	DC50
CC(C)NC(=O)O[C@@H]1CC[C@H](c2cc(NC(=O)c3cnn(CCCCCCCCCC#Cc4cccc5c(N6CCC(=O)NC6=O)cncc45)c3)n[nH]2)C1 [I-67]	1 to 5 µM

Missing value: DC50, CDK1 (Homo sapiens, UniProt P06493), entry CC(C)NC(=O)O[C@@H]1CC[C@H](c2cc(NC(=O)c3cnn(CCOCCOCCOCCCc4cccc5c4n(C)c(=O)n5C4CCC(=O)NC4=O)c3)n[nH]2)C1 (some centres unmarked) [I-72] . Fill in? > 5 µM

Missing value: DC50, CDK1 (Homo sapiens, UniProt P06493), entry CC(C)NC(=O)O[C@@H]1CC[C@H](c2cc(NC(=O)c3cnn(CCCCCCCCCCCc4cccn5c(N6CCC(=O)NC6=O)cnc45)c3)n[nH]2)C1 [I-64] . Fill in? 1 to 5 µM

Missing value: DC50, CDK1 (Homo sapiens, UniProt P06493), entry Cc1cc(S(=O)(=O)N2CCC(CN(C)C3CCN(c4cccc5c4n(C)c(=O)n5C4CCC(=O)NC4=O)CC3)CC2)ccc1Nc1ncc2ccc(=O)n(C3CCCC3)c2n1 (centres unmarked) [I-114] . Fill in? 1 to 5 µM

Missing value: DC50, CDK1 (Homo sapiens, UniProt P06493), entry CC(C)NC(=O)O[C@H]1CC[C@@H](c2cc(NC(=O)c3cc(COCCCCCCCCCc4ccn5c(N6CCC(=O)NC6=O)cnc5c4)nn3C)[nH]n2)C1 [I-145] . Fill in? 0.1 to 1 µM

Missing value: DC50, CDK1 (Homo sapiens, UniProt P06493), entry Cc1cc(S(=O)(=O)NCCOC2CC3(C2)CN(CC#Cc2ccc4c(c2)n(C)c(=O)n4C2CCC(=O)NC2=O)C3)ccc1Nc1ncc2ccc(=O)n(C3CCCC3)c2n1 (centres unmarked) [I-126] . Fill in? 1 to 5 µM

Missing value: DC50, CDK1 (Homo sapiens, UniProt P06493), entry CC(C)NC(=O)O[C@@H]1CC[C@H](c2cc(NC(=O)c3cnn(CCOCCOCCOCCCc4ccn5c(N6CCC(=O)NC6=O)cnc5c4)c3)n[nH]2)C1 [I-74] . Fill in? > 5 µM

Missing value: DC50, CDK1 (Homo sapiens, UniProt P06493), entry CC(C)NC(=O)O[C@@H]1CC[C@H](c2cc(NC(=O)c3ccnn3CCOCCOCCOCCOCCCc3cccc4c3n(C)c(=O)n4C3CCC(=O)NC3=O)n[nH]2)C1 (some centres unmarked) [I-55] . Fill in? > 5 µM

---

DC50 values for the molecules below.
Target: CDK2 (Homo sapiens)
Construct: endogenous in cells; host or cells: OVCAR-8
Test: CDK2 degradation by immunoblotting in OVCAR-8 cells
Format: cell-based
Conditions: 24 h

Before answering, review these 3 worked examples.
Molecule	Study target	DC50
Cc1cc(S(=O)(=O)NCCOCCOCCCc2cccc3c2n(C)c(=O)n3C2CCC(=O)NC2=O)ccc1Nc1ncc2cc(C(F)F)c(=O)n([C@@H]3CCC[C@@]3(C)O)c2n1 (stereo partly shown) [I-8]	CDK2 (Homo sapiens)	0.01 to 0.1 µM
CC(C)NC(=O)O[C@@H]1CC[C@H](c2cc(NC(=O)c3cnn(CCCCCCCCCc4ccc5c(c4)n(C)c(=O)n5C4CCC(=O)NC4=O)c3)n[nH]2)C1 (stereo partly shown) [I-91]	CDK2 (Homo sapiens)	0.01 to 0.1 µM
CC(C)NC(=O)O[C@@H]1CC[C@H](c2cc(NC(=O)c3cnn(CCCCCCCCCC#Cc4cccc5c(N6CCC(=O)NC6=O)cncc45)c3)n[nH]2)C1 [I-67]	CDK2 (Homo sapiens)	0.1 to 1 µM

Could you now look at the following molecule, please?
Using the record for CC(C)NC(=O)O[C@@H]1CC[C@H](c2cc(NC(=O)c3ccnn3CCOCCOCCOCCCc3ccc4c(c3)n(C)c(=O)n4C3CCC(=O)NC3=O)[nH]n2)C1 (stereo partly shown) [I-83] , report its DC50. 0.01 to 0.1 µM
